Molecular target: T1, Recombinant FcRn/b2M protein (human, UniProt P55899 24-297; P61769 21-119, limits assumed)
T1 construct: also called hFcRn/b2M; neonatal Fc receptor
T1 sequence (P55899 24-297 limits assumed, chain 1 of 2): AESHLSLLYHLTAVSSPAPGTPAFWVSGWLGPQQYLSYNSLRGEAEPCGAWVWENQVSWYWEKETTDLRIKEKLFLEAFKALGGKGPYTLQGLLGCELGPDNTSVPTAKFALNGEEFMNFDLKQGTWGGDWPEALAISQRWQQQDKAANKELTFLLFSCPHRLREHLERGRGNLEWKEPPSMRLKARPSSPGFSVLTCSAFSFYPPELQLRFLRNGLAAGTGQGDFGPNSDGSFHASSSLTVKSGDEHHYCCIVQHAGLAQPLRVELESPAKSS
T1 sequence (P61769 21-119 limits assumed, chain 2 of 2): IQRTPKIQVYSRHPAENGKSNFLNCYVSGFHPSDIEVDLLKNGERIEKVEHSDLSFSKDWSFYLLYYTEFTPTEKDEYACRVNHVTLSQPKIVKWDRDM
Assay: SPR pH 6.0, FcRn/b2M immobilized, two-state reaction model
propertyMeasured: Kd (µM)
Give bare numbers, in µM.

binder | observedResult
TSC 1004 (other, IgG1 Fc with E233P, L234V, L235A, G237A, K322A (EU); also called PVAG TSC01004) EPKSSDKTHTCPPCPAPPVAGAPSVFLFPPKPKDTLMISRTPEVTCVVVDVSHEDPEVKFNWYVDGVEVHNAKTKPREEQYNSTYRVVSVLTVLHQDWLNGKEYKCAVSNKALPAPIEKTISKAKGQPREPQVYTLPPSRDELTKNQVSLTCLVKGFYPSDIAVEWESNGQPENNYKTTPPVLDSDGSFFLYSKLTVDKSRWQQGNVFSCSVMHEALHNHYTQKSLSLSPG | 0.02
TSC 1007 (other, IgG1 Fc with E233P, L234A, L235A, deletion of G236, G237A, K322A (EU); also called PAAdel TSC01007) EPKSSDKTHTCPPCPAPPAAAPSVFLFPPKPKDTLMISRTPEVTCVVVDVSHEDPEVKFNWYVDGVEVHNAKTKPREEQYNSTYRVVSVLTVLHQDWLNGKEYKCAVSNKALPAPIEKTISKAKGQPREPQVYTLPPSRDELTKNQVSLTCLVKGFYPSDIAVEWESNGQPENNYKTTPPVLDSDGSFFLYSKLTVDKSRWQQGNVFSCSVMHEALHNHYTQKSLSLSPG | 0.019
Null2 Fc (other, human, UniProt P01857-1 99-329, looked up, name in EU numbering, domain: Fc region) EPKSCDKTHTCPPCPAPEAAGAPSVFLFPPKPKDTLMISRTPEVTCVVVDVSHEDPEVKFNWYVDGVEVHNAKTKPREEQYNSTYRVVSVLTVLHQDWLNGKAYACAVSNKALPAPIEKTISKAKGQPREPQVYTLPPSRDELTKNQVSLTCLVKGFYPSDIAVEWESNGQPENNYKTTPPVLDSDGSFFLYSKLTVDKSRWQQGNVFSCSVMHEALHNHYTQKSLSLSPG | 0.033

For each of the binders below, state Kd.
1. TSC 1005 (other, IgG1 Fc with E233P, L234V, L235A, deletion of G236, G237A, K322A (EU); also called PVAdel TSC01005) EPKSSDKTHTCPPCPAPPVAAPSVFLFPPKPKDTLMISRTPEVTCVVVDVSHEDPEVKFNWYVDGVEVHNAKTKPREEQYNSTYRVVSVLTVLHQDWLNGKEYKCAVSNKALPAPIEKTISKAKGQPREPQVYTLPPSRDELTKNQVSLTCLVKGFYPSDIAVEWESNGQPENNYKTTPPVLDSDGSFFLYSKLTVDKSRWQQGNVFSCSVMHEALHNHYTQKSLSLSPG
2. K322A Fc (other, IgG1 Fc with L234A, L235A, G237A, K322A (EU); the listing labels the entry 'K332A') EPKSSDKTHTCPPCPAPEAAGAPSVFLFPPKPKDTLMISRTPEVTCVVVDVSHEDPEVKFNWYVDGVEVHNAKTKPREEQYNSTYRVVSVLTVLHQDWLNGKEYKCAVSNKALPAPIEKTISKAKGQPREPQVYTLPPSRDELTKNQVSLTCLVKGFYPSDIAVEWESNGQPENNYKTTPPVLDSDGSFFLYSKLTVDKSRWQQGNVFSCSVMHEALHNHYTQKSLSLSPG
3. TSC 1006 (other, IgG1 Fc with E233P, L234A, L235A, G237A, K322A (EU); also called PAAG TSC01006) EPKSSDKTHTCPPCPAPPAAGAPSVFLFPPKPKDTLMISRTPEVTCVVVDVSHEDPEVKFNWYVDGVEVHNAKTKPREEQYNSTYRVVSVLTVLHQDWLNGKEYKCAVSNKALPAPIEKTISKAKGQPREPQVYTLPPSRDELTKNQVSLTCLVKGFYPSDIAVEWESNGQPENNYKTTPPVLDSDGSFFLYSKLTVDKSRWQQGNVFSCSVMHEALHNHYTQKSLSLSPG

A.
0.02
0.022
0.019
